Species: Rattus norvegicus
protocol_notes: Open TG-GATES - Regimen: Single
Format: toxicity, organism-based, Sprague-Dawley
Parameters: regimen Single, gender Male, age 6 weeks
condition_summary: in vivo, po, 0 mg/kg, 9 h, tissue Plasma, route gavage, dose level Control

{"columns": ["compound", "TBIL"],
 "data": [
  ["CN(C)CCC=C1c2ccccc2CCc2ccccc21", "0.06 mg/dL"],
  ["O=C(O)c1cn(C2CC2)c2cc(N3CCNCC3)c(F)cc2c1=O", "0.3 mg/dL"],
  ["CCc1cc(C(N)=S)ccn1 [ETHIONAMIDE]", "0.4 mg/dL"],
  ["NC(=O)N1c2ccccc2C=Cc2ccccc21 [CARBAMAZEPINE]", "0.1 mg/dL"],
  ["CC(=O)Oc1ccccc1C(=O)O", "0.1 mg/dL"],
  ["Cn1c(=O)c2[nH]cnc2n(C)c1=O.O", "0.022 mg/dL"],
  ["COc1ccc(Cc2nccc3cc(OC)c(OC)cc23)cc1OC", "0.016 mg/dL"]
]}
